assay: qHTS assay to identify small molecule antagonists of the androgen receptor (AR) signaling pathway using the MDA cell line in the presence of 0.5 nM R1881 - cell viability counter screen (AID 1259242); details: MDA-kb2 viability, CellTiter-Fluor protease fluorescence, 16 h; series mostly up to 92.4 µM; further: nearly all actives have a fitted effect of over 45% in size
Inconclusive results are not listed. Active and inactive are the calls of the source. The call rests on the fitted dose curve; in most records, active means well fitted cell-killing curve with a large enough effect in the repeat runs; inconclusive means weak or mixed curves, or effect the other way; inactive means flat fitted curve, though single readings scatter. Where a SMILES comes first, the peptide text is derived from it. [ ]: non-standard residue; d: D form. pGlu = O=C1CC[C@@H](C(=O)O)N1

| Compound | viability change, negative = cytotoxic |
| --- | --- |
| CCCC(=O)O[C@]1(C(=O)CC)CC[C@H]2[C@@H]3CCC4=CC(=O)CC[C@]4(C)[C@H]3[C@@H](O)C[C@@]21C | inactive |
| CCNC(=O)[C@@H]1CCCN1C(=O)[C@H](CCCN=C(N)N)NC(=O)[C@H](CC(C)C)NC(=O)CNC(=O)[C@H](Cc1ccc(O)cc1)NC(=O)[C@H](CO)NC(=O)[C@H](Cc1c[nH]c2ccccc12)NC(=O)[C@H](Cc1cnc[nH]1)NC(=O)[C@@H]1CCC(=O)N1 ([pGlu]HWSYGLRP-NHEt) | inactive |
| COc1c(N2CCNC(C)C2)c(F)cc2c(=O)c(C(=O)O)cn(C3CC3)c12 (centres undefined) | inactive |
| CC(C(=O)O)c1cccc(Oc2ccccc2)c1 (centres undefined) | inactive |
| CCN(Cc1ccccc1)c1ccccc1 | inactive |
| O=CN(CCO)CCO | inactive |
| CC(C)COC(=O)c1ccc(N)cc1 | inactive |
| CC(C)(C)C(=O)Oc1ccc(S(=O)(=O)Nc2ccccc2C(=O)NCC(=O)O)cc1 | inactive |
| CC(CO)(CO)[N+](=O)[O-] | inactive |
| COc1cc(C(=O)NCc2ccc(OCCN(C)C)cc2)cc(OC)c1OC | inactive |
| CN1C(C)(C)CC(O)CC1(C)C | inactive |
| O=C(O)CNC(=O)c1ccc(CO)o1 | inactive |
| C=CCCCCCCCCC(=O)OCC | inactive |
| Cc1ccc(-c2ncc(Cl)cc2-c2ccc(S(C)(=O)=O)cc2)cn1 | inactive |
| CCOC(=O)c1cnc2c(cnn2CC)c1NN=C(C)C | inactive |
| O=S(=O)(O)c1cccc2ccccc12 | inactive |
| CCN(C=O)CC | inactive |
| CC(=O)c1ccccc1[N+](=O)[O-] | inactive |
| Cc1ccc(C(=O)c2ccc(CC(=O)O)n2C)cc1 | inactive |
| CCC(C(=O)NC(=O)NC(C)=O)c1ccccc1 (centres undefined) | inactive |
| Nc1ccccn1 | inactive |
| C=CCOCC(O)CO (centres undefined) | inactive |
| CCCCS(=O)(=O)N[C@@H](Cc1ccc(OCCCCC2CCNCC2)cc1)C(=O)O | inactive |
| CC1=CC(=O)[C@H]2C[C@@H]1C2(C)C | inactive |
